study system: TRPML3 (Homo sapiens, UniProt Q8TDD5)
Construct: expressed in transfected cells
Sequence (Q8TDD5 whole entry): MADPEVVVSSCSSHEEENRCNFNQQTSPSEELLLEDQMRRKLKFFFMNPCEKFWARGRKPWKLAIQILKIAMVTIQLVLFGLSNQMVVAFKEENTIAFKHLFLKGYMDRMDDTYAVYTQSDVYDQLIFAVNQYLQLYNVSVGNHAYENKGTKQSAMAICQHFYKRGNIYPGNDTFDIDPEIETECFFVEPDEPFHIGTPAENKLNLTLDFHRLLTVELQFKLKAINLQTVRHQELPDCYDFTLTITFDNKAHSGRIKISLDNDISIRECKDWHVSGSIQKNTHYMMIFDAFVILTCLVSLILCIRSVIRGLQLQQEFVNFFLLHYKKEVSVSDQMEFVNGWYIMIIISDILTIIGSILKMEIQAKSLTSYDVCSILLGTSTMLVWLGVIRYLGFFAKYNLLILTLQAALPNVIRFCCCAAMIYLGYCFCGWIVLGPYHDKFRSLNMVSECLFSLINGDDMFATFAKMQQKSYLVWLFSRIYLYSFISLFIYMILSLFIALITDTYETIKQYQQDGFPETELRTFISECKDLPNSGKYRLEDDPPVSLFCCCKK
test method notes: Fluorescent TRPML3 assay (as for TRPML1)
Format: cell-based
conditions: Table 3, compounds 101-177
measured endpoint: EC50

A selection of reference data follows.
• C[C@H]1CN(C(=O)C(C)(C)C)CCN1c1ncnc2c1c(C1CC1)cn2-c1cc(C#N)ccn1 = < 100 nM
• CC(C)C(=O)N1CCN(c2ncnc3c2c(-c2ccccc2F)cn3-c2nccc(C#N)n2)[C@@H](C)C1 = 500 to 2000 nM
• C[C@H]1CN(C(=O)CC(C)(C)C)CCN1c1ncnc2c1c(C1CC1)cn2-c1cc(C#N)ccn1 = 100 to 500 nM

Value of measured EC50 for the entry "C[C@H]1CN(C(=O)CCC(F)(F)F)CCN1c1ncnc2c1c(-c1ccccc1F)cn2-c1cc(C#N)ccn1" : 100 to 500 nM

Value of measured EC50 for the entry "CC(C)C(=O)N1CCN(c2ncnc3c2c(-c2ccccc2F)cn3-c2cc(C#N)ccn2)C2(CC2)C1" : < 100 nM

Value of measured EC50 for the entry "C[C@@H]1CN(c2ncnc3c2c(-c2ccccc2F)cn3-c2cc(F)ccn2)[C@@H](C)CN1C(=O)C(C)(C)O" : 100 to 500 nM

Value of measured EC50 for the entry "C[C@@H]1CN(c2ncnc3c2c(-c2ccccc2F)cn3-c2cc(C#N)ccn2)[C@@H](C)CN1C(=O)C(C)(C)O" : < 100 nM
